Test system: NCI-H460 lung
Test: NCI-60 one-dose screen, 48 h
Settings: 10 µM unless noted
The panel holds about 83,000 compounds, 20% with a hit somewhere; the sample as a whole holds those more often. Calls of active or inactive are those of the source. How the source made its calls: active means growth percent below 10; inactive means the rest.
Select the matching outcome among yes (1) (active), no (0) (inactive)

Example entries and their recorded answers appear below.
CCOC(=O)Oc1c(OC)cc(C(=O)O[C@@H]2C[C@@H]3CN4CCc5c([nH]c6cc(OC)ccc56)[C@H]4C[C@@H]3[C@H](C(=O)OC)[C@H]2OC)cc1OC; no (0)
O=C(Nc1nc2ccc(C(=O)N3CCN(c4ccc(Cl)c(Cl)c4)CC3)cc2s1)c1ccc(NCCc2ccccc2)c([N+](=O)[O-])c1; no (0)
Cc1ccccc1-c1cc(Cc2ccc(F)cc2)c(=O)[nH]n1; no (0)
O=C1CCC(NC(=S)Nc2ccccc2)N1 (centres undefined); no (0)
CCNC(=S)NNC(=O)c1cc2ccc1CCc1ccc(cc1)CC2; no (0)
Fc1ccc(C2CC(c3cccc(Nc4ccncc4)c3)=NN2c2ccccc2)cc1 (centres undefined); yes (1)
Nc1nc(N)nc(NCc2ccccc2)n1; no (0)
COc1cc(C(=O)/C=C/c2c(C)n([O-])c3ccc(Cl)cc3[n+]2=O)cc(OC)c1OC; no (0)
Cc1c(C(=O)NO)sc2ncnc(Nc3ccc(NC(=S)Nc4ccccc4)cc3)c12; no (0)
Cc1cc2cc3cc(C)c(N)cc3[n+](C)c2cc1N; yes (1)

[ask] Test call, this compound: CCN(CC)S(=O)(=O)c1cccc([N+](=O)[O-])c1
[reply] no (0)

[ask] Test call, this compound: CC(=O)c1c[nH]c2ccc(-c3ccnc(Nc4ccc(NC(=O)c5cccc(F)c5)c(CN5CCOCC5)c4)n3)cc12
[reply] yes (1)
